Notes on pIC50 obtained with UniProtKB P52699.
Sequence (P52699 whole entry, looked up, species assumed): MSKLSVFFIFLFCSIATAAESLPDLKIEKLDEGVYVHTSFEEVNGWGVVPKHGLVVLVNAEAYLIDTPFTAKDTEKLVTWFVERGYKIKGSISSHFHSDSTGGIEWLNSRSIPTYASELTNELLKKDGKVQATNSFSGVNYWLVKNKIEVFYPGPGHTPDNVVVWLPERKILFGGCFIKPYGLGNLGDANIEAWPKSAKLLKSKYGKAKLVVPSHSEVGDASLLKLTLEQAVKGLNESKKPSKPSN
Answer as the number alone; pIC50 is minus log10 of concentration in mol/L.

N[C@@H]1CCCN(c2ccc(S(=O)(=O)N[C@@H]3CCNC3)c(S(N)(=O)=O)c2-c2nnn[nH]2)C1 : 7.23
NC(=O)[C@@H]1CN(c2ccc(S(=O)(=O)N[C@@H]3CCNC3)c(S(N)(=O)=O)c2-c2nn[nH]n2)CCN1 : 8.49
NC[C@@H](O)CNS(=O)(=O)c1ccc(N2CCC(C(N)=O)C2)c(-c2nn[nH]n2)c1S(N)(=O)=O (stereo partly shown) : 8.90

Given the entry `NS(=O)(=O)c1c(S(=O)(=O)C2CNC2)ccc(N2CCN(CCCO)CC2)c1-c1nnn[nH]1` , report its measured pIC50.
8.11

Given the entry NC1(CO)CCN(c2ccc(S(=O)(=O)N[C@@H]3CCNC3)c(S(N)(=O)=O)c2-c2nnn[nH]2)C1 (stereo partly shown) , report its measured pIC50.
7.48

Given the entry NC[C@@H](O)CNS(=O)(=O)c1ccc(NC2CCC(N)C2)c(-c2nn[nH]n2)c1S(N)(=O)=O (stereo partly shown) , report its measured pIC50.
7.40

Given the entry CC1CC(CN)CCN1c1ccc(S(=O)(=O)NC[C@H](O)CN)c(S(N)(=O)=O)c1-c1nn[nH]n1 (stereo partly shown) , report its measured pIC50.
8.03
